# procedure_details: Peroral absorbability in beagles: plasma irinotecan level and pharmacokinetic analysis (Example 6)
# Type: in vivo
# details: male, beagle, dog, plasma, po, 10 mg/kg, peroral, 10 mg/kg as irinotecan, mean ± SD (number of samples in parentheses), read-out: Cmax (maximum plasma level)
Where a name gives a salt, the structure may show the parent alone.
quantity_name: Cmax (ng/mL)

INSERT INTO measurements (compound, meas_value) VALUES
  ('CCc1c2c(nc3ccc(OC(=O)N4CCC(N5CCCCC5)CC4)cc13)-c1cc3c(c(=O)n1C2)COC(=O)[C@]3(O)CC [hydrochloride, reference compound]', 2030);

====

# procedure_details: Three-month room-temperature storage of 20, 30 and 40 mg/mL aqueous solutions, visual observation (Example 5)
# Assay type: physicochemical
# details: 40 mg/mL aqueous solution, three months
# Source text: The filtrate was allowed to stand at room temperature for three months, and the aqueous solution after storage was visually observed so as to evaluate the solution state.
quantity_name: Solution state after storage

INSERT INTO assay_data (molecule, meas_value) VALUES
  ('CCc1c2c(nc3ccc(OC(=O)N4CCC(N5CCCCC5)CC4)cc13)-c1cc3c(c(=O)n1C2)COC(=O)[C@]3(O)CC.O=[N+]([O-])O [Nitric acid addition salt (1), irinotecan nitric acid salt]', '+'),
  ('CCc1c2c(nc3ccc(OC(=O)N4CCC(N5CCCCC5)CC4)cc13)-c1cc3c(c(=O)n1C2)COC(=O)[C@]3(O)CC.O=P(O)(O)O [Phosphoric acid addition salt (2), irinotecan phosphoric acid salt]', '−'),
  ('CCc1c2c(nc3ccc(OC(=O)N4CCC(N5CCCCC5)CC4)cc13)-c1cc3c(c(=O)n1C2)COC(=O)[C@]3(O)CC.O=[N+]([O-])O [Nitric acid addition salt (2), irinotecan nitric acid salt]', '−'),
  ('CCc1c2c(nc3ccc(OC(=O)N4CCC(N5CCCCC5)CC4)cc13)-c1cc3c(c(=O)n1C2)COC(=O)C3(O)CC.O=S(=O)(O)O (stereo not shown) [Sulfuric acid addition salt (2), irinotecan sulfuric acid salt]', '−');

====

# procedure_details: Peroral absorbability in beagles: plasma irinotecan level and pharmacokinetic analysis (Example 6)
# Type: in vivo
# details: male, beagle, dog, plasma, po, 10 mg/kg, peroral, 10 mg/kg as irinotecan, mean ± SD (number of samples in parentheses), read-out: AUC0-inf (area under time-level curve to infinite time)
Counter-ions that a name gives are not always drawn.
quantity_name: AUC(0-inf) (ng·h/mL)

INSERT INTO results (compound, meas_value) VALUES
  ('CCc1c2c(nc3ccc(OC(=O)N4CCC(N5CCCCC5)CC4)cc13)-c1cc3c(c(=O)n1C2)COC(=O)[C@]3(O)CC [hydrochloride, reference compound]', 11200);

====

# procedure_details: Peroral absorbability in beagles: plasma irinotecan level and pharmacokinetic analysis (Example 6)
# Format: in vivo
# details: male, beagle, dog, plasma, oral, 10 mg/kg, peroral, 10 mg/kg as irinotecan, 3 h, mean (n=6) ± SD
Structures can show the parent of a compound that is named as a salt.
quantity_name: concentration at 3 h (ng/mL)

INSERT INTO measurements (compound, readout_units, meas_value) VALUES
  ('CCc1c2c(nc3ccc(OC(=O)N4CCC(N5CCCCC5)CC4)cc13)-c1cc3c(c(=O)n1C2)COC(=O)[C@]3(O)CC [hydrochloride, reference compound]', 'ng/mL', 2010);
